Biological target: CYP1A2 (Homo sapiens)
Sequence (P05177 whole entry): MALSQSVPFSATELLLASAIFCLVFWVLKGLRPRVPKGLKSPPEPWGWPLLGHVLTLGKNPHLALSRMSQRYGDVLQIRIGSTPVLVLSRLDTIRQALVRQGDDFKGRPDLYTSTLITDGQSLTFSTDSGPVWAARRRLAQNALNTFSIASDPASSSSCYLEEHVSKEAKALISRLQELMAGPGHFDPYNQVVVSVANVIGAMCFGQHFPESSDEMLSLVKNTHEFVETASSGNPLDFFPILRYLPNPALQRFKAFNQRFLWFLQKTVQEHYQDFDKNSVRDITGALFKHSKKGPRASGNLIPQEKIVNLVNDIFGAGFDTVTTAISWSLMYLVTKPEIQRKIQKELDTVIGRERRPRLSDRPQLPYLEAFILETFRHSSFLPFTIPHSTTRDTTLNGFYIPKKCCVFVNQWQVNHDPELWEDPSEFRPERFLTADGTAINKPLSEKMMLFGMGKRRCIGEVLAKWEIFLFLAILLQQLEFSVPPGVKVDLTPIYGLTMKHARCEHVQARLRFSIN
Assay: in vitro
Conditions: microsomes
Procedure: The CYP inhibition assay was based on a previous publication with minor modifications. The method uses human liver microsomes and a substrate-specific interaction approach which relies on the formation of a metabolite that is mediated by a specific CYP isoform. […] Concentrations of the substrate-specific metabolites in quenched samples were determined by LC–MS (Additional file 1: Table S5) relative to calibration standards prepared in quenched microsomal matrix. […]
experimental.readout: Ki (µM)
Please reply with the bare figure in µM and do not write the unit itself.

Query: What Ki value was documented for this compound, COc1cc(N[C@H](C)CCCN)c2nccc(C)c2c1Oc1ccc(Cl)c(Cl)c1 [NPC1161B] ?
Response: 3.8

----------
assay: Ionization constants by potentiometric titration; format: physicochemical; conditions: aqueous solution (DMSO stock diluted 1:10 with water), acidic pKa (A), mean ± SD, n = 3 titrations, read-out: Measured pKa
experimental.readout: pKa
Please respond with just the number, no unit label.

Query: What pKa value was documented for this compound, COc1ncnc(NS(=O)(=O)c2ccc(N)cc2)c1OC [Sulfadoxine] ?
Response: 6.2

Query: Consider next the compound C[C@H]1[C@H](OC(=O)CCC(=O)O)O[C@@H]2O[C@@]3(C)CC[C@H]4[C@H](C)CC[C@@H]1[C@@]24OO3 [Artesunate] in the same way.
Response: 4.7

----------
Record form. Attribute: Papp B→A. Fill in for each entry.
assay: Bidirectional permeability across Caco-2 cell monolayers; details: human, Caco-2, pH 7.4

Query: What Papp B→A value was documented for this molecule, C[C@H]1[C@H](OC(=O)CCC(=O)O)O[C@@H]2O[C@@]3(C)CC[C@H]4[C@H](C)CC[C@@H]1[C@@]24OO3 [Artesunate] ?
Response: 2.8 ×10⁻⁶ cm/s

Query: Consider next the molecule CCc1nc(N)nc(N)c1-c1ccc(Cl)cc1 [Pyrimethamine] in the same way.
Response: 59 ×10⁻⁶ cm/s

Query: Consider next the molecule CS(=O)(=O)c1ccc(-c2cnc(N)c(-c3ccc(C(F)(F)F)nc3)c2)cc1 [MMV048] in the same way.
Response: 53 ×10⁻⁶ cm/s

Query: Consider next the molecule N#Cc1cc(NC(=O)[C@H]2c3ccccc3C(=O)N(CC(F)(F)F)[C@@H]2c2cccnc2)ccc1F [SJ733] in the same way.
Response: 50 ×10⁻⁶ cm/s

Query: Consider next the molecule COC(=O)c1ccccc1-c1c2ccc(=N)cc-2oc2cc(N)ccc12 [Rhodamine 123] in the same way.
Response: 10 to 28 ×10⁻⁶ cm/s

Query: Consider next the molecule CC(C)NCC(O)COc1cccc2ccccc12 (centres unmarked) [Propranolol] in the same way.
Response: 35 to 42 ×10⁻⁶ cm/s

Query: Consider next the molecule CC1(C)N=C(N)N=C(N)N1c1ccc(Cl)cc1 [Cycloguanil] in the same way.
Response: 0.77 ×10⁻⁶ cm/s

Query: Consider next the molecule CO[C@H]1O[C@@H]2O[C@@]3(C)CC[C@H]4[C@H](C)CC[C@@H]([C@H]1C)[C@@]24OO3 [Artemether] in the same way.
Response: 42 ×10⁻⁶ cm/s

Query: Consider next the molecule Cc1cc(Nc2ccc(S(F)(F)(F)(F)F)cc2)n2nc(C(C)(F)F)nc2n1 [DSM265] in the same way.
Response: 49 ×10⁻⁶ cm/s

Query: Consider next the molecule Nc1ccc(S(=O)(=O)c2ccc(N)cc2)cc1 [Dapsone] in the same way.
Response: 56 ×10⁻⁶ cm/s

Query: Consider next the molecule [H]/N=C(\N/C(=N/[H])Nc1ccc(Cl)cc1)NC(C)C [Proguanil] in the same way.
Response: 7.9 ×10⁻⁶ cm/s
